- protocol: Log P measurement by HPLC on reversed phase columns (EEC directive 79/831 Annex V.A8; methods [a], [b], [c])
- Format: physicochemical
- measurement_setup: method [a]: LC-UV, acidic range, 0.1% formic acid in water and acetonitrile as eluent
Each entry below lists one item and its recorded LogP value.

Completed entries (count: 5):
structure_smiles=CCN(C)C=Nc1cc(C)c(Oc2ccccc2)cc1C#N result=1.58^[a];
structure_smiles=CCN(C)C=Nc1cc(I)c(Oc2ccccc2Br)cc1C result=1.75^[a]
structure_smiles=CCN(C)C=Nc1cc(C)c(Oc2cccc(Cl)c2)cc1Cl result=1.84^[a]
structure_smiles=CCN(C)C=Nc1cc(I)c(Oc2ccccc2C)cc1C result=1.78^[a]
structure_smiles=Cc1cc(Oc2ccccc2F)c(C)cc1N=CN(C)C(C)C result=1.68^[a]

q: Returns the measured LogP for the input compound. Input: CCN(C)C=Nc1cc(C)c(Oc2cccc(F)c2F)cc1C
a: 1.49^[a]

q: Which LogP is reported for this compound? CCN(C)C=Nc1cc(I)c(Oc2ccccc2)cc1C
a: 1.69^[a];

q: # LogP lookup, item CCN(C)C=Nc1cc(C)c(Oc2ccccc2C#N)cc1C(F)(F)F
a: 1.63^[a]

q: Return reported LogP; argument: CCN(C)C=Nc1cc(C)c(Oc2ccc(F)cc2)cc1Cl
a: 1.47^[a]

q: What value of measured LogP is listed for Cc1cc(N=CN(C)C)c(Cl)cc1Oc1ccccc1F ?
a: 1.37^[a]

###

- protocol: Log P measurement by HPLC on reversed phase columns (EEC directive 79/831 Annex V.A8; methods [a], [b], [c])
- Type: physicochemical
- measurement_setup: method [a]: LC-UV, acidic range, 0.1% formic acid in water and acetonitrile as eluent (linear gradient 10% to 95% acetonitrile)
Attribute: LogP

structure_smiles=CCN(C)C=Nc1cc(C)c(Oc2ccccc2F)cc1C(=O)N(C)C result=1.24^[a]
structure_smiles=CCN(C)C=Nc1cc(C)c(Oc2ccccc2N(C)C)cc1C result=0.55^[a]

q: Entry CCN(C)C=Nc1cc(C)c(Oc2ccccc2)cc1C(=O)N(C)C has what LogP?
a: 1.21^[a]

q: Give the measured LogP of CCN(C)C=Nc1cc(C)c(Oc2ccccc2N(C)C)cc1Cl .
a: 0.78^[a]

q: Dear colleague, I am looking for the recorded LogP of the following compound: CCN(C)C=Nc1cc(C)c(Oc2ccccc2C(F)(F)F)cc1C
a: 1.69^[a]

q: Could you share which LogP value was measured for CCN(C)C=Nc1cc(C)c(Oc2ccccc2N(C)C)cc1Br ?
a: 1.07^[a]

###

# Necrosis in % per entry
- Test system: soy bean plants
- protocol: Plant compatibility test using soy bean plants
- Assay type: in vivo
- measurement_setup: soy bean young plants sprayed, rate of application of active compound 500 ppm, evaluated 6 days after application; 0% = no damages, 100% = plants totally damaged
The reply should read as a number followed by its unit.

Look over these answered cases.
structure_smiles=CCN(C)C=Nc1cc(C(F)F)c(Oc2ccccc2F)cc1C readout_label="Necrosis in %" result=0%
structure_smiles=CCN(C)C=Nc1cc(C(C)C)c(Oc2ccccc2C#N)cc1C readout_label="Necrosis in %" result=0%

q: Item under review: CCc1cc(N=CN(C)CC)c(C)cc1Oc1ccccc1F . Reported Necrosis in %?
a: 30%

q: Which value of Necrosis in % has been reported for CCN(C)C=Nc1cc(C2CC2)c(Oc2ccccc2F)cc1C in the records?
a: 0%

q: // lookup Necrosis in % for Cc1cc(Oc2ccccc2C#N)c(C)cc1N=CN(C)C(C)C
a: 5%

q: Which Necrosis in % value belongs to CCN(C)C=Nc1cc(C)c(Oc2cc(F)ccc2C#N)cc1Cl ?
a: 10%

q: // query Necrosis in % value for entry CCN(C)C=Nc1cc(F)c(Oc2ccccc2F)cc1C
a: 20%

q: Quick one: Necrosis in % for CCN(C)C=Nc1cc(Br)c(Oc2ccccc2F)cc1C ?
a: 20%

q: # query: Necrosis in % of entry CCN(C)C=Nc1cc(C)c(Oc2ccccc2Cl)cc1C
a: 30%

q: Need Necrosis in %, item CCN(C)C=Nc1cc(Cl)c(Oc2cccc(F)c2)cc1C
a: 5%
